Reference for the values: ChEMBL document CHEMBL1143329

- Protocol description: Inhibition of Streptococcus pneumoniae phenylalanyl-tRNA synthetase
For each record, write down the corresponding pIC50.
Notebook: values listed as pIC50 are -log10 of the concentration (mol/L).

Which value of pIC50 has been reported for NC(=O)Cc1nnc(-c2ccc(OCc3cccc(Cl)c3)c(Cl)c2)o1 in the records? 3.90

What measured pIC50 goes with CS(=O)(=O)c1nnc(-c2ccc(OCc3cccc(Cl)c3)c(Cl)c2)o1 ? 4.28

State the recorded pIC50 for this entry: O=C(NCC1CC1)c1cc(Cl)c(OCc2cccc(Cl)c2)cn1 4.30

Name the reported pIC50 value associated with the compound CCc1nnc(-c2ccc(OCc3cccc(Cl)c3)c(Cl)c2)o1 4.12

Could you tell me which pIC50 is on file for Cc1cc(C(=O)N2CCN(C(=O)C3CCCO3)CC2)ccc1CC(O)c1cccc(Cl)c1 (stereo not drawn) ? 4.96

Consider the compound shown here: Cc1ccc(C(=O)N2CCN(S(=O)(=O)c3ccc(OCc4cccc(Cl)c4)c(Cl)c3)CC2)cc1 What is its recorded pIC50? 4.92

Entry O=C(O)Cc1nnc(-c2ccc(OCc3cccc(Cl)c3)c(Cl)c2)o1 : reported pIC50 = ? 3.96
